All values here come from patent US8524194B2.

pIC50: −log10 of the molar value.
Reported pIC50 for target or system MMP-9 (Homo sapiens), by entry.
quantity-kind: pIC50

1. O=C(O)CN(CC(=O)NO)S(=O)(=O)c1ccc(Oc2ccc(F)cc2)cc1 [Compound 6b]
2. O=C(O)CN(CC(=O)NO)S(=O)(=O)c1ccc(Oc2ccc(Br)cc2)cc1 [Compound 6d]
For the pair 1 and 2 , which member has the lower pIC50 number? Please indicate the selected item by its label.
2
(2: 8.71, 1: 9.57)

---

Protein target, amino acids: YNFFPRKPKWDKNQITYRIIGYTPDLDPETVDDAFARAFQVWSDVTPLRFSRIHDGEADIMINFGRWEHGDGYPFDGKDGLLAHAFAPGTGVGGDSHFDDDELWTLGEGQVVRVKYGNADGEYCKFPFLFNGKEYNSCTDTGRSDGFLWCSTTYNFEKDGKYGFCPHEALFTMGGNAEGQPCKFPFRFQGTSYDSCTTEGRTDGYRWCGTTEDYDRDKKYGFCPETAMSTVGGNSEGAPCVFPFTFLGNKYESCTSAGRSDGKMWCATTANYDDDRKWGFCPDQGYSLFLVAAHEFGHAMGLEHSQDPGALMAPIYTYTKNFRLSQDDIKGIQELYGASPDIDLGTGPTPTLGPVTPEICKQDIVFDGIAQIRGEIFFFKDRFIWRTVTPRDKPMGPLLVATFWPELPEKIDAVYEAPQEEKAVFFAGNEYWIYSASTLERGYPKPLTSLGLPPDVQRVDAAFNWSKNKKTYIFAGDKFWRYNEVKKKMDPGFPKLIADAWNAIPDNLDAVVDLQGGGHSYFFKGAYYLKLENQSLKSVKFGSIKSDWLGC
quantity-kind: IC50 (nM)

a. O=C(O)CN(CC(=O)NO)S(=O)(=O)c1ccc(Oc2ccccc2)cc1
b. O=C(O)CN(CC(=O)NO)S(=O)(=O)c1ccc(Oc2ccc(I)cc2)cc1
Lab note: check whether a or b shows the higher recorded IC50. Answer by stating the label of the chosen item.
b
(b: 7.64 nM, a: 1.89 nM)
